Recorded kon, one value per entry.
target: T1, Human B7H4 ECD (SV), splice variant, 10His_FLAG (human); test: Octet BLI, hIgG1 on Protein G (n = 1)
T1 construct: also called B7-H4-SV
observation.type: kon (M⁻¹ s⁻¹)

[[record]]
binder = "ZY0EOB-F05 human IgG1 (antibody, V domains shown) VH: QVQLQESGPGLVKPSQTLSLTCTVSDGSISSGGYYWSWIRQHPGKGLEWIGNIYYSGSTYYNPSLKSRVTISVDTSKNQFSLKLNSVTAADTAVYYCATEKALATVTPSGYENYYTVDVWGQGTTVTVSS VL: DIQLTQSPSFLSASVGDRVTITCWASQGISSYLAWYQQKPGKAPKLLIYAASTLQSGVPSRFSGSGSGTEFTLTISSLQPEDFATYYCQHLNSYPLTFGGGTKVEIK"
observed_result = 4710

[[record]]
binder = "ZY0EPQ-E02 human IgG1 (antibody, V domains shown) VH: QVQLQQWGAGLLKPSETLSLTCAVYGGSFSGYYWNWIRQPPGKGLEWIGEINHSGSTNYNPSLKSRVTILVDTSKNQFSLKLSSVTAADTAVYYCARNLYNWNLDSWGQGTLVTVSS VL: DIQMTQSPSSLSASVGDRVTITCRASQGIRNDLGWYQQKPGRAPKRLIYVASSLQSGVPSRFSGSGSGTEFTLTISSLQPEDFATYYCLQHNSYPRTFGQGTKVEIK"
observed_result = 2460

[[record]]
binder = "ZY0EO5-E07 human IgG1 (antibody, V domains shown, also called ZY0E05-E07; E05-E07) VH: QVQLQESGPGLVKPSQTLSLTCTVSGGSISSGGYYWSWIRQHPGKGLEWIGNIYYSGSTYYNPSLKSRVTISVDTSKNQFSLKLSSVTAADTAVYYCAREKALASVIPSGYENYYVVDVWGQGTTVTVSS VL: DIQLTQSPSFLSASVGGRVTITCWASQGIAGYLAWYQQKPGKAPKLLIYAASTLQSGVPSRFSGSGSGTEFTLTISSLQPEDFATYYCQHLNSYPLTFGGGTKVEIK"
observed_result = 2910

